TEST_SYSTEM: Tryptophan 2,3-dioxygenase (Homo sapiens, UniProt P48775)
Sequence (P48775 whole entry): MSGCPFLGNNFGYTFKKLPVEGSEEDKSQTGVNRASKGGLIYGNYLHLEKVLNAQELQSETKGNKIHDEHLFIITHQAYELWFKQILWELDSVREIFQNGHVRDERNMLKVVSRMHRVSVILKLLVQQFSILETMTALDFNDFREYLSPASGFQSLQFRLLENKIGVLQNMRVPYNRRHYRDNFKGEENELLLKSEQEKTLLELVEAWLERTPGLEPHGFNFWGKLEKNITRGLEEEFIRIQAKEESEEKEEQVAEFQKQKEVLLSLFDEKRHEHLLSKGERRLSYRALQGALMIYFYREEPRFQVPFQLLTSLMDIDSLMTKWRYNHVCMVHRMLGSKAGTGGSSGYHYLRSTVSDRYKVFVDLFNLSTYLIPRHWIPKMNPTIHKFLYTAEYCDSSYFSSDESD
MEASUREMENT_NOTES: Inhibition of TDO in HEK cells
REPORTED_METRIC: pIC50
Just the number, please; pIC50 means minus log10 of the concentration in mol/L.

C[C@H](C(=O)Nc1ccc(Cl)cc1)[C@H]1CC[C@]2(CC1)COc1ncc(C(F)(F)F)cc12
4.74
O=C(CN1CCC2(CCc3ccccc32)CC1)Nc1ccc(Cl)cc1
4.37
O=C(Nc1ccc(Cl)cc1)C(CCO)N1CCC2(CC1)COc1cc(C(F)(F)F)ccc12 (centres undefined)
5.02
CC(C(=O)Nc1ccc(Cl)cc1)C1CCC2(CC1)c1ccc(C(F)(F)F)cc1CN2C (centres undefined)
5.15
CC[C@H](C(=O)Nc1ccc(Cl)cn1)[C@H]1CC[C@]2(CC1)COc1cc(C(F)(F)F)ccc12
4.58
C[C@H](C(=O)Nc1ccc(Cl)cc1)[C@H]1CC[C@]2(CC1)COc1cc(C(F)(F)F)ccc12
5.14
CC[C@H](C(=O)Nc1ccc(Cl)cc1)N1CCC2(CC1)COc1cc(C(F)(F)F)ccc12 (stereo in doubt)
4.81
CC[C@@H](C(=O)Nc1ccc(Cl)cc1)N1CCC2(CC1)COc1cc(C(F)(F)F)ccc12 (stereo in doubt)
4.94

Now for a further compound.
Form entry - test system: Tryptophan 2,3-dioxygenase (Homo sapiens, UniProt P48775); read-out: pIC50; compound: CC(C(=O)Nc1ccc(Cl)cc1)N1CCC2(CC1)COc1cc(C(F)(F)F)ccc12 (racemic) 4.45

---

TEST_SYSTEM: Indoleamine 2,3-dioxygenase 1 (Homo sapiens)
MEASUREMENT_NOTES: Inhibition of IDO1 in human SKOV3 cells
Format: cell-based, SK-OV-3
REPORTED_METRIC: IC50 (nM)
Value expressed in nM; do not type the unit.

Sample records with IC50:
O=C(CN1CCC2(CC1)COc1cc(C(F)(F)F)ccc12)Nc1ccc(Cl)cc1
260
C[C@H](C(=O)Nc1ccc(Cl)cc1)[C@H]1CC[C@]2(CC1)COc1ncc(C(F)(F)F)cc12
7.9
O=C(Nc1ccc(Cl)cc1)C(CCO)N1CCC2(CC1)COc1cc(C(F)(F)F)ccc12 (centres undefined)
86
O=C(CN1CCC2(CCc3ccccc32)CC1)Nc1ccc(Cl)cc1
670
CC(C(=O)Nc1ccc(Cl)cc1)N1CCC2(CC1)COc1cc(C(F)(F)F)ccc12 (racemic)
22

Look at this molecule and give its reported IC50. C[C@H](C(=O)Nc1ccc(Cl)cc1)[C@H]1CC[C@]2(CC1)COc1cc(C(F)(F)F)ccc12 3.9

O=C(Nc1ccc(Cl)cc1)C(=O)N1CCC(c2ccnc3ccc(F)cc23)CC1 , same question. 15

C[C@H](C(=O)Nc1ccc(Cl)cc1)[C@H]1CC[C@]2(CC1)COc1nc(C(F)(F)F)ccc12 , same question. 5.4

O=C(Nc1ccc(Cl)cc1)C(CC1CC1)N1CCC2(CC1)COc1cc(C(F)(F)F)ccc12 (centres undefined) , same question. 4.4

---

MEASUREMENT_NOTES: Metabolic stability in mouse liver microsomes assessed as intrinsic clearance
Assay type: ADME, Microsome
CONDITION_DETAILS: read-out: CLH
Readings of microsomal CLint for the listed molecules
Value expressed in µL/min/mg; do not type the unit.

Sample records with microsomal CLint:
C[C@@H](C(=O)Nc1ccc(Cl)cc1)[C@H]1CC[C@]2(CC1)COc1cc(C(F)(F)F)ccc12
4.5
C[C@H](C(=O)Nc1ccc(Cl)cc1)[C@H]1CC[C@]2(CC1)COc1ncc(C(F)(F)F)cc12
19
O=C(Nc1ccc(Cl)cc1)C(CC1CC1)N1CCC2(CC1)COc1cc(C(F)(F)F)ccc12 (stereo not given)
14
CC[C@H](C(=O)Nc1ccc(Cl)cc1)N1CCC2(CC1)COc1cc(C(F)(F)F)ccc12 (stereo in doubt)
48
CCC(C(=O)Nc1ccc(Cl)cc1)N1CCC2(CCOc3cc(C(F)(F)F)ccc32)CC1 (stereo not given)
39

Look at this molecule and give its reported microsomal CLint. CC(C)(C(=O)Nc1ccc(Cl)cc1)N1CCC2(CC1)COc1cc(C(F)(F)F)ccc12 117

CC[C@H](C(=O)Nc1ccc(Cl)cn1)[C@H]1CC[C@]2(CC1)COc1cc(C(F)(F)F)ccc12 , same question. 30

C[C@@H](C(=O)Nc1ccc(Cl)cc1)[C@H]1CC[C@@]2(CC1)COc1cc(C(F)(F)F)ccc12 , same question. 92

CC(C(=O)Nc1ccc(Cl)cc1)N1CCC2(CC1)COc1cc(C(F)(F)F)ccc12 (racemic) , same question. 56

CC(C(=O)Nc1ccc(Cl)cc1)N1CCC2(CCc3ccccc32)CC1 (racemic) , same question. 668

---

MEASUREMENT_NOTES: Metabolic stability in rat hepatocytes assessed as intrinsic clearance measured per million cells
Type: ADME, cell-based, Hepatocyte
CONDITION_DETAILS: read-out: CLH
REPORTED_METRIC: hepatocyte CLint (µL/min/1e6 cells)
Value expressed in µL/min/1e6 cells; do not type the unit.

Look at this compound and give its reported hepatocyte CLint. C[C@H](C(=O)Nc1ccc(Cl)cc1)[C@H]1CC[C@]2(CC1)COc1cc(C(F)(F)F)ccc12 5.6

---

MEASUREMENT_NOTES: Cmax in mouse at 10 mg/kg, po
Format: ADME, organism-based
Set-up: route oral, dose 10 mg/kg
CONDITION_DETAILS: in vivo
Readings of Cmax for the listed compounds
Output should be the measured figure followed by the unit it is expressed in.

C[C@@H](C(=O)Nc1ccc(Cl)cc1)[C@H]1CC[C@@H](c2ccnc3ccc(F)cc32)CC1
2000 nM

Look at this compound and give its reported Cmax. C[C@H](C(=O)Nc1ccc(Cl)cc1)[C@H]1CC[C@]2(CC1)COc1cc(C(F)(F)F)ccc12 2880 nM

---

MEASUREMENT_NOTES: AUC(0 to 72 hrs) in rat at 10 mg/kg, po
Format: ADME, organism-based
Design: time < 72 hr, route oral, dose 10 mg/kg
CONDITION_DETAILS: in vivo
REPORTED_METRIC: AUC(0-t) at 72 h
Output should be the measured figure followed by the unit it is expressed in.

Look at this molecule and give its reported AUC(0-t) at 72 h. C[C@H](C(=O)Nc1ccc(Cl)cc1)[C@H]1CC[C@]2(CC1)COc1cc(C(F)(F)F)ccc12 18.2 µM·h

---

TEST_SYSTEM: Indoleamine 2,3-dioxygenase 1 (Homo sapiens, UniProt P14902)
Sequence (P14902 whole entry): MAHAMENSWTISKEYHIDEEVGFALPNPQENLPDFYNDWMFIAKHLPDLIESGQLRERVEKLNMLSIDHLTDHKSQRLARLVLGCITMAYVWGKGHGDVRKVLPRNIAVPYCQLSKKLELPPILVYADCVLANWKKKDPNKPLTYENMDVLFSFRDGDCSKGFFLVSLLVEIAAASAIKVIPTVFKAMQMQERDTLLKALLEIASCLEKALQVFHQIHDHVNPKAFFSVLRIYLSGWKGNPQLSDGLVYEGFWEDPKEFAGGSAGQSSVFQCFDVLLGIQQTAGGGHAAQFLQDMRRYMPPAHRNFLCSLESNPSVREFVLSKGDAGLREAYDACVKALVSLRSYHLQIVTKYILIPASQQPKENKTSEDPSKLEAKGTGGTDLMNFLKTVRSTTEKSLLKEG
MEASUREMENT_NOTES: Inhibition of IDO1 in human SKOV3 cells
Format: cell-based, SK-OV-3
Readings of pIC50 for the listed molecules
Just the number, please; pIC50 means minus log10 of the concentration in mol/L.

O=C(Nc1ccc(Cl)cc1)C(=O)N1CCC2(CC1)COc1cc(C(F)(F)F)ccc12
7.49
CCC(C(=O)Nc1ccc(Cl)cc1)N1CCC2(CCOc3cc(C(F)(F)F)ccc32)CC1 (stereo unspecified)
7.92
CC(C)(C(=O)Nc1ccc(Cl)cc1)N1CCC2(CC1)COc1cc(C(F)(F)F)ccc12
7.96

Now for a further molecule.
Look at this molecule and give its reported pIC50. C[C@H](C(=O)Nc1ccc(Cl)cc1)[C@H]1CC[C@@]2(CC1)COc1cc(C(F)(F)F)ccc12 8.29

---

MEASUREMENT_NOTES: Metabolic stability in human liver microsomes assessed as intrinsic clearance
Assay type: ADME, Microsome
CONDITION_DETAILS: read-out: CLH
Readings of microsomal CLint for the listed compounds
Value expressed in µL/min/mg; do not type the unit.

C[C@@H](C(=O)Nc1ccc(Cl)cc1)[C@H]1CC[C@]2(CC1)COc1cc(C(F)(F)F)ccc12
3.7
CCC(C(=O)Nc1ccc(Cl)cc1)N1CCC2(CCOc3cc(C(F)(F)F)ccc32)CC1 (stereo not given)
22
CC(C)(C(=O)Nc1ccc(Cl)cc1)N1CCC2(CC1)COc1cc(C(F)(F)F)ccc12
34
CC[C@H](C(=O)Nc1ccc(Cl)cc1)N1CCC2(CC1)COc1cc(C(F)(F)F)ccc12 (stereo in doubt)
17

Look at this compound and give its reported microsomal CLint. CC(C(=O)Nc1ccc(Cl)cc1)N1CCC2(CCc3ccccc32)CC1 (racemic) 326

CC[C@@H](C(=O)Nc1ccc(Cl)cc1)N1CCC2(CC1)COc1cc(C(F)(F)F)ccc12 (stereo in doubt) , same question. 22

CC[C@H](C(=O)Nc1ccc(Cl)cn1)[C@H]1CC[C@]2(CC1)COc1cc(C(F)(F)F)ccc12 , same question. 5.9

CC(C(=O)Nc1ccc(Cl)cc1)N1CCC2(CC1)COc1cc(C(F)(F)F)ccc12 (racemic) , same question. 11

C[C@H](C(=O)Nc1ccc(Cl)cc1)[C@H]1CC[C@]2(CC1)COc1ncc(C(F)(F)F)cc12 , same question. 3
